# Test system: Key Broadleaf Weed and Crop Species
# ASSAY PROTOCOL: Post-emergent Test II herbicidal activity (Table 5)
# Assay type: in vivo
# EXPERIMENTAL CONTEXT: post-emergence, 336 h; HELAN: sunflower (Helianthus annuus); application rate 140 g ai/ha; 14 days after application; read-out: Visual Growth Reduction (%) 14 Days After Application, HELAN
QUANTITY: pest or weed control at 140 g/ha

Example results:
>  <MOL SMILES>
COC(=O)c1nc(-c2ccc(I)cc2)c(F)c(N)c1Cl

>  <pest or weed control at 140 g/ha>
95 to 100%

$$$$
>  <MOL SMILES>
COC(=O)c1nc(-c2ccc(Br)c(F)c2F)cc(N)c1Cl

>  <pest or weed control at 140 g/ha>
95 to 100%

$$$$
>  <MOL SMILES>
COC(=O)c1nc(-c2ccc([N+](=O)[O-])cc2)c(F)c(N)c1Cl

>  <pest or weed control at 140 g/ha>
95 to 100%

$$$$

# input Item under review: COC(=O)c1nc(-c2ccc(I)c(F)c2F)nc(N)c1OC . Reported pest or weed control at 140 g/ha?
# output 95 to 100%

# input // next record Nc1c(F)c(-c2ccc(OC(F)F)cc2F)nc(C(=O)O)c1Cl
# output 75 to 84%

# input // next record COC(=O)c1nc(-c2ccc(C#N)c(F)c2F)c(F)c(N)c1Cl
# output 95 to 100%

# input // next record COC(=O)c1nc(-c2ccc(Br)cc2)nc(N)c1OC
# output 95 to 100%

# input // next record COC(=O)c1nc(-c2ccc(I)cc2F)nc(N)c1OC
# output 95 to 100%

# input // next record COC(=O)c1nc(-c2ccc(OC(F)F)c(F)c2)c(F)c(N)c1Cl
# output 85 to 94%

----------
# Tested on: Key Grass and Sedge Weeds as well as Grass Crops
# ASSAY PROTOCOL: Post-emergent Test II herbicidal activity (Table 6)
# Assay type: in vivo
# EXPERIMENTAL CONTEXT: post-emergence, 336 h, ZEAMX: maize, corn (Zea mays), application rate 140 g ai/ha, read-out: Visual Growth Reduction (%) 14 Days After Application, ZEAMX
QUANTITY: pest or weed control at 140 g/ha

>  <MOL SMILES>
C=Cc1c(C(=O)O)nc(-c2ccc(C(F)(F)F)c(F)c2)c(F)c1N

>  <EXPERIMENTAL SYSTEM>
Key Grass and Sedge Weeds as well as Grass Crops

>  <pest or weed control at 140 g/ha>
60 to 74%

$$$$

Would you kindly look at the next entry?
# input Item under review: COC(=O)c1nc(-c2cc(F)c(I)cc2F)cc(N)c1Cl . Reported pest or weed control at 140 g/ha?
# output 85 to 94%

----------
# System: Key Broadleaf Weed and Crop Species
# ASSAY PROTOCOL: Post-emergent Test II herbicidal activity (Table 5)
# Assay type: in vivo
# EXPERIMENTAL CONTEXT: post-emergence, 336 h; CHEAL: lambsquarters (Chenopodium album); 70 g ai/ha; post-emergent; 14 days after application; read-out: Visual Growth Reduction (%) 14 Days After Application CHEAL
Recorded pest or weed control at 70 g/ha, one value per entry.

Example results:
>  <MOL SMILES>
C=Cc1c(C(=O)OC)nc(-c2ccc(C(F)(F)F)c(F)c2)c(F)c1N

>  <pest or weed control at 70 g/ha>
0 to 29%

$$$$
>  <MOL SMILES>
Nc1cc(-c2ccc(I)c(F)c2)nc(C(=O)O)c1Cl

>  <pest or weed control at 70 g/ha>
95 to 100%

$$$$
>  <MOL SMILES>
C#Cc1ccc(-c2cc(N)c(Cl)c(C(=O)OC)n2)cc1

>  <pest or weed control at 70 g/ha>
95 to 100%

$$$$
>  <MOL SMILES>
C=Cc1c(N)nc(-c2ccc(F)c(F)c2F)nc1C(=O)OC

>  <pest or weed control at 70 g/ha>
95 to 100%

$$$$
>  <MOL SMILES>
C=Cc1c(N)nc(-c2ccc(C#N)cc2F)nc1C(=O)O

>  <pest or weed control at 70 g/ha>
0 to 29%

$$$$
>  <MOL SMILES>
COC(=O)c1nc(-c2cc(F)c(C#N)cc2F)nc(N)c1OC

>  <pest or weed control at 70 g/ha>
0 to 29%

$$$$
>  <MOL SMILES>
Nc1cc(-c2cc(F)c(Br)cc2F)nc(C(=O)O)c1Cl

>  <pest or weed control at 70 g/ha>
95 to 100%

$$$$
>  <MOL SMILES>
COC(=O)c1nc(-c2ccc(Br)cc2)c(Cl)c(N)c1Cl

>  <pest or weed control at 70 g/ha>
95 to 100%

$$$$
>  <MOL SMILES>
Nc1c(Cl)c(C(=O)O)nc(-c2ccc(Br)c(F)c2)c1Cl

>  <pest or weed control at 70 g/ha>
75 to 84%

$$$$
>  <MOL SMILES>
COC(=O)c1nc(-c2cc(F)c(Br)cc2F)c(F)c(N)c1Cl

>  <pest or weed control at 70 g/ha>
95 to 100%

$$$$

# input Item under review: COC(=O)c1nc(-c2cc(F)c(OC(F)F)cc2F)cc(N)c1Cl . Reported pest or weed control at 70 g/ha?
# output 75 to 84%

# input // next record C=Cc1c(N)nc(-c2ccc(I)cc2)nc1C(=O)O
# output 0 to 29%

# input // next record COC(=O)c1nc(-c2cc(F)c(F)cc2F)c(F)c(N)c1Cl
# output 95 to 100%

# input // next record Cc1c(-c2ccc(I)c(F)c2)nc(C(=O)O)c(Cl)c1N
# output 85 to 94%

# input // next record Nc1c(Cl)c(C(=O)O)nc(-c2ccc(I)cc2)c1Cl
# output 85 to 94%

# input // next record COC(=O)c1nc(-c2c(F)cc(I)c(F)c2F)cc(N)c1Cl
# output 95 to 100%
